Experiment Description: qHTS of small molecules that selectively kill Giardia lamblia: Hit Validation in HepG2 cytotox;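 note: compound exposure lasted overnight at 37 deg C; nearly all actives have a fitted effect of over 55% in size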
Test Context: cell viability; HepG2 cytotoxicity; series mostly up to 38.3 µM
Out of some 1,300 compounds screened, about 150 (12%) were called active. Inconclusive results (about 30%) are left out. Calls come from the whole dose curve; as a rule, active = well fitted cell-killing curve with a large enough effect; inconclusive = small, poorly fitted or top-dose-only effect, or effect the other way; inactive = flat fitted curve, though single readings scatter. This is one part of a sample in which actives are shown more often than they occur.
// classify into True for active, False for inactive

input: Just curious, what result did C=CCNC(=O)c1ccccc1NC(=O)COc1ccccc1 get here?
output: False

input: Just curious, what result did COc1cccc([C@@H]2CC=C(C(=O)O)[C@H](c3cccc(Cl)c3)N2S(=O)(=O)c2ccc(C)cc2)c1 get here?
output: False

input: Just curious, what result did Nc1c(Cl)cc(C2=NCCn3c2c2ccc(C(F)(F)F)cc2[n+]3[O-])cc1Cl get here?
output: False

input: Just curious, what result did COc1ccc(-n2nc([N+](=O)[O-])c(=NCCc3ccc(Cl)cc3)n2O)cc1 get here?
output: False

input: Just curious, what result did CCCCC(=O)Nc1ncc([N+](=O)[O-])s1 get here?
output: False

input: Just curious, what result did O=C(COc1cccnc1[N+](=O)[O-])Nc1cc(Cl)ccc1Cl get here?
output: False

input: Just curious, what result did COc1ccc2cc(-c3cc(C(=O)OCC(=O)Nc4c(C)n(C)n(-c5ccccc5)c4=O)c4ccccc4n3)ccc2c1 get here?
output: True

input: Just curious, what result did Cc1ccc(CN=c2c([N+](=O)[O-])nn(-c3cccc(C)c3)n2O)cc1 get here?
output: False

input: Just curious, what result did O=[N+]([O-])c1cc(/C=N/Nc2nc(N3CCCCC3)nc(N3CCCCC3)n2)ccc1O get here?
output: False

input: Just curious, what result did COc1cc(N=Nc2c(C)n(C)n(-c3ccccc3)c2=O)ccc1N get here?
output: False

###

Experiment Description: qHTS of small molecules that selectively kill Giardia lamblia: Hit Validation in HepG2 cytotox;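 note: compound exposure lasted overnight at 37 deg C; nearly all actives have a fitted effect of over 55% in size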
Test Context: cell viability; HepG2 cytotoxicity; series mostly up to 38.3 µM
About 150 (12%) of roughly 1,300 compounds were called active. About 30% were inconclusive and are not listed. The call rests on the fitted dose curve; in most records, active means well fitted cell-killing curve with a large enough effect; inconclusive means small, poorly fitted or top-dose-only effect, or effect the other way; inactive means flat fitted curve, though single readings scatter. Many of the other results were omitted from the sample, so actives are more common in it than they were.
// classify into T (active), F (inactive)

input: Just curious, what result did N/C(=N/OC(=O)c1ccc(Cl)cc1)c1ncc([N+](=O)[O-])s1 get here?
output: F

input: Just curious, what result did O=[N+]([O-])c1ccc(-c2ccn[nH]2)o1 get here?
output: F

input: Just curious, what result did Cn1nc(-c2cccnc2)nc2c(=O)n(C)c(=O)nc1-2 get here?
output: T

input: Just curious, what result did O=C1NC(=S)S/C1=C\C=C\c1ccc([N+](=O)[O-])o1 get here?
output: T

input: Just curious, what result did COc1ccc(-c2ncn(CCC#N)c2[N+](=O)[O-])cc1 get here?
output: F

input: Just curious, what result did CC12CN3CC(C)(CN(C1)C3c1ccc([N+](=O)[O-])o1)C2 (stereo unspecified) get here?
output: F

input: Just curious, what result did CN(C)CCCn1cnc2c(c1=N)C(c1ccccc1)c1ccc3ccccc3c1O2 (stereo unspecified) get here?
output: T

input: Just curious, what result did CCOC(=O)C1CCN(c2ccc([N+](=O)[O-])c(C(C)=O)c2)CC1 get here?
output: F

input: Just curious, what result did CCCc1nc2c(=O)n(C)c(=O)nc-2n(C)n1 get here?
output: T

input: Just curious, what result did COc1ccc(-c2nc3c(=O)n(C)c(=O)nc-3n(C)n2)cc1 get here?
output: T

input: Just curious, what result did Cc1ccccc1-c1nc2c(=O)n(C)c(=O)nc-2n(C)n1 get here?
output: T

###

Experiment Description: qHTS of small molecules that selectively kill Giardia lamblia: Hit Validation in HepG2 cytotox;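 note: compound exposure lasted overnight at 37 deg C; nearly all actives have a fitted effect of over 55% in size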
Test Context: cell viability; HepG2 cytotoxicity; series mostly up to 38.3 µM
In all, about 1,300 compounds went through this assay and about 150 (12%) were called active. Roughly 30% stayed inconclusive and do not appear here. Calls come from the whole dose curve; as a rule, active = well fitted cell-killing curve with a large enough effect; inconclusive = small, poorly fitted or top-dose-only effect, or effect the other way; inactive = flat fitted curve, though single readings scatter. For the sample, actives were picked, then their nearest neighbours and some compounds at random.
// classify into yes (1) = active, no (0) = inactive

input: Just curious, what result did COc1ccc2nc(C)cc(N/N=C/c3ccc(F)cc3)c2c1 get here?
output: yes (1)

input: Just curious, what result did CSC1SCC2C(=O)N(C)C(C(C)C)C(=O)OCC(NC(=O)c3cnc4ccccc4n3)C(=O)NC(C)C(=O)N(C)C1C(=O)N(C)C(C(C)C)C(=O)OCC(NC(=O)c1cnc3ccccc3n1)C(=O)NC(C)C(=O)N2C (stereo not given) get here?
output: yes (1)

input: Just curious, what result did COc1ccccc1C1C([N+](=O)[O-])=CC([N+](=O)[O-])=CN1C (stereo not given) get here?
output: no (0)

input: Just curious, what result did CS(=O)(=O)N1CCN(c2ccccc2NC(=O)c2ccc([N+](=O)[O-])o2)CC1 get here?
output: no (0)

input: Just curious, what result did Cc1[nH]n(S(=O)(=O)c2ccccc2)c(=O)c1N=Nc1cccc(Cl)c1 get here?
output: no (0)

input: Just curious, what result did CS(=O)(=O)N1CCN(c2ccc(NC(=O)c3ccc([N+](=O)[O-])o3)cc2)CC1 get here?
output: yes (1)

input: Just curious, what result did N#CC1C=Cc2c(ccc3ccccc23)N1C(=O)c1ccccc1 (stereo not given) get here?
output: no (0)

input: Just curious, what result did COC(=O)c1ccc(Cn2cc(C(F)(F)F)cc([N+](=O)[O-])c2=O)cc1 get here?
output: no (0)

input: Just curious, what result did O=[N+]([O-])c1ncn(Cc2c(Cl)cccc2Cl)n1 get here?
output: no (0)

input: Just curious, what result did COc1cc2nc(N3CCCCC3)nc(NC3CCN(Cc4ccccc4)CC3)c2cc1OC get here?
output: yes (1)

input: Just curious, what result did Cc1cc(C(=O)N/N=C/c2ccc(O)c([N+](=O)[O-])c2)n[nH]1 get here?
output: no (0)

input: Just curious, what result did O=C(/C=C/c1ccc(O)c([N+](=O)[O-])c1)c1ccc2ccccc2c1 get here?
output: no (0)

input: Just curious, what result did Cc1cc(N)ccc1N=Nc1c(C)n(C)n(-c2ccccc2)c1=O get here?
output: no (0)

input: Just curious, what result did Cn1c(=O)c(=O)n(C)c2cc([N+](=O)[O-])c(N3CCOCC3)cc21 get here?
output: no (0)

input: Just curious, what result did Cc1ccc(NC(=S)NNc2ccc([N+](=O)[O-])cc2S(=O)(=O)Nc2ccccc2C(=O)O)cc1C get here?
output: no (0)

input: Just curious, what result did CC(NC(=O)Cn1cc(Br)c([N+](=O)[O-])n1)c1ccccc1 (stereo not given) get here?
output: no (0)

input: Just curious, what result did O=C(N/N=C/c1cc2c(cc1[N+](=O)[O-])OCO2)c1ccccn1 get here?
output: no (0)

input: Just curious, what result did COc1ccc(/C=N/Nc2cc(C)nc3c(C)cccc23)cc1 get here?
output: yes (1)

input: Just curious, what result did CCOC(=O)N=Nc1c2ccccc2c2nc3no[nH]c3nc12 get here?
output: yes (1)

input: Just curious, what result did CCc1cc(=O)oc2cc(C)cc(OCC(=O)NC3CCN(Cc4ccccc4)CC3)c12 get here?
output: no (0)

###

Experiment Description: qHTS of small molecules that selectively kill Giardia lamblia: Hit Validation in HepG2 cytotox;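 note: compound exposure lasted overnight at 37 deg C; nearly all actives have a fitted effect of over 55% in size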
Test Context: cell viability; HepG2 cytotoxicity; series mostly up to 38.3 µM
Among all 1,300 compounds or so, about 150 (12%) were called active. Not shown: some 30% with an inconclusive outcome. Calls follow the shape of the dose curve; as a rule, active = well fitted cell-killing curve with a large enough effect; inconclusive = small, poorly fitted or top-dose-only effect, or effect the other way; inactive = flat fitted curve, though single readings scatter. The entries come from a sample that favours actives as a whole.
// classify into true = active, false = inactive

input: Just curious, what result did COc1cc(Nc2ccc(C)cc2)c([N+](=O)[O-])nc1[N+](=O)[O-] get here?
output: false

input: Just curious, what result did COc1ccc(C(=O)c2c(C)oc3cc([N+](=O)[O-])c(O)c([N+](=O)[O-])c23)cc1 get here?
output: false

input: Just curious, what result did COc1cccc([C@@H]2CC=C(C(=O)O)[C@H](c3ccccc3F)N2S(=O)(=O)c2ccc(C)cc2)c1 get here?
output: false

input: Just curious, what result did Nc1ccc[n+](CC(=O)c2ccc(F)cc2)c1 get here?
output: true

input: Just curious, what result did N#Cc1c(Nc2ccccc2)[n+]([O-])c2ccc(Cl)cc2[n+]1[O-] get here?
output: true

input: Just curious, what result did O=C(Cc1c(F)cccc1Cl)Nc1ncc([N+](=O)[O-])s1 get here?
output: false

input: Just curious, what result did O=C(c1ccco1)N1CCN(Cc2cc(=O)c(OCc3ccc([N+](=O)[O-])cc3)co2)CC1 get here?
output: false

input: Just curious, what result did O=C(Cc1ccccc1)Nc1nnc(-c2cccs2)s1 get here?
output: false

input: Just curious, what result did CCCCCN=Cc1c(C)[nH]n(-c2nc3ccccc3s2)c1=O get here?
output: true

input: Just curious, what result did Cn1nc(N)c2c(-c3ccc(Cl)cc3)c(C#N)c(N)nc21 get here?
output: false

input: Just curious, what result did O=C(Cc1csc(Nc2nc(=S)[nH]c3ccccc23)n1)NCCCN1CCN(c2ccccc2F)CC1 get here?
output: true

input: Just curious, what result did CCOc1cc([N+](=O)[O-])cc(/C=C2/NC(=O)N(Cc3ccccc3F)C2=O)c1O get here?
output: false

input: Just curious, what result did CCN(CCCNC(=O)c1nn(C)c2c1CS(=O)(=O)c1ccccc1-2)Cc1ccccc1 get here?
output: false

input: Just curious, what result did O=[N+]([O-])c1cccc(S(=O)(=O)c2ccc(NCCOCCO)c([N+](=O)[O-])c2)c1 get here?
output: false

input: Just curious, what result did NNC(=O)c1cccc(Cn2cc(Br)c([N+](=O)[O-])n2)c1 get here?
output: false

input: Just curious, what result did CC(=O)Oc1ccc2c(=O)c(Oc3ccccc3[N+](=O)[O-])coc2c1 get here?
output: false

input: Just curious, what result did O=[N+]([O-])c1ccc(O/N=[N+](\[O-])N2CCCCC2)c([N+](=O)[O-])c1 get here?
output: false

input: Just curious, what result did CCn1cnc2c([N+](=O)[O-])c(NS(=O)(=O)c3ccc(C)cc3)ccc21 get here?
output: false

input: Just curious, what result did Cc1nc(C)c(C(=O)Nc2ncc([N+](=O)[O-])s2)o1 get here?
output: false

input: Just curious, what result did CC(=O)CSc1ccc(-c2nc3ccccc3[nH]2)cn1 get here?
output: true

input: Just curious, what result did Cc1cnc([N+](=O)[O-])n1CCOC(=O)NC(=O)c1ccc(F)cc1 get here?
output: false
